Tgt: Human VEGF-A 165 (human, UniProt P15692 207-395)
Sequence (P15692 other isoform, or with tags, fused parts or gaps limits assumed): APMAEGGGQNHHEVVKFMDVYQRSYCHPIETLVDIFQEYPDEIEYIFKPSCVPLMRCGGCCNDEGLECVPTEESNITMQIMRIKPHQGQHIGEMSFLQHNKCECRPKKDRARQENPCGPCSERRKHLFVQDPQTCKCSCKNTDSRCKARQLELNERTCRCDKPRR
Assay procedure: cell-based or functional assay
Label true for high-side hVEGF165 IC50 (nM), HMVEC-d proliferation (at or above 0.1 nM) and false for low-side hVEGF165 IC50 (nM), HMVEC-d proliferation (below it).

Binder | Assigned class
hBEW-5C3.2 (antibody, V domains shown) VH: EIQLVQSGAEVKKPGSSVKVSCKASGYTFTNYGVYWVKQAPGQGLEYMGWINTETGKPTYADDFKGRFTFTLDKSTSTAYMELSSLRSEDTAVYFCARARQLDWFVYWGQGTLVTVSS VL: DTVLTQSPATLSLSPGERATLSCRARESLTTSLSWFQQKPGQQPRLLIYGASKLESGVPARFSGSGSGTDFTLTISSLEPEDFAVYFCQQSWYDPPTFGGGTKVEIK | true
hBEW-1B10.1 (antibody, V domains shown) VH: EVQLVESGGGLVQPGGSLRLSCAASGFSFSKYDMAWFRQAPGKGLEWVASITTSGVGTYYRDSVKGRFTVSRDNAKSTLYLQMNSLRAEDTAVYYCARGYGAMDAWGQGTTVTVSS VL: DIQMTQSPSSLSASVGDRVTITCKASQDIDDYLSWYQQKPGKSPKLVIYAATRLADGVPSRFSGSGSGTDYTLTISSLQPEDFATYYCLQSSSTPWTFGGGTKVEIK | true
hBEW-5C3.1 (antibody, V domains shown) VH: EIQLVQSGSELKKPGASVKVSCKASGYTFTNYGVYWVKQAPGQGLEYMGWINTETGKPTYADDFKGRFVFSLDTSVSTAYLQISSLKAEDTAVYYCARARQLDWFVYWGQGTLVTVSS VL: DTVLTQSPATLSLSPGERATLSCRARESLTTSLSWFQQKPGQQPRLLIYGASKLESGVPARFSGSGSGTDFTLTISSLEPEDFAVYFCQQSWYDPPTFGGGTKVEIK | false
hBEW-1E3.3 (antibody, V domains shown) VH: EVQLVQSGAEVKKPGASVKVSCKASGYPFTNSGMYWVRQAPGQGLEWMGWINTEAGKPTYADDFKGRFTFTLDTSTSTAYLEIRSLRSDDTAVYYCARWGYISDNSYGWFDYWGQGTLVTVSS VL: ETVLTQSPATLSLSPGERATLSCRASEGVYSYMHWYQQKPGQQPRLLIYKASNLASGVPARFSGSGSGTDFTLTISSLEPEDFAVYFCHQNWNDPLTFGQGTKLEIK | true
hBEW-9E10.1 (antibody, V domains shown) VH: EIQLVQSGSELKKPGASVKVSCKASGYTFTNYGMYWVKQAPGQGLEYMGWIDTETGRPTYADDFKGRFVFSLDTSVSTAYLQISSLKAEDTAVYFCARWSGDTTGIRGPWFAYWGQGTLVTVSS VL: DIRMTQSPSSLSASVGDRVTIECLASEDIYSDLAWYQQKPGKSPKLLIYNANGLQNGVPSRFSGSGSGTDYSLTISSLQPEDVATYFCQQYNYFPGTFGQGTKLEIK | false
hBEW-5C3.3 (antibody, V domains shown) VH: EVQLVQSGAEVKKPGSSVKVSCKASGYTFTNYGVYWVRQAPGQGLEWMGWINTETGKPTYADDFKGRFTFTLDKSTSTAYMELSSLRSEDTAVYYCARARQLDWFVYWGQGTLVTVSS VL: DTVLTQSPATLSLSPGERATLSCRARESLTTSLSWFQQKPGQQPRLLIYGASKLESGVPARFSGSGSGTDFTLTISSLEPEDFAVYFCQQSWYDPPTFGGGTKVEIK | true
hBEW-1E3.4 (antibody, V domains shown, Humanized IgG) VH: EIQLVQSGSELKKPGASVKVSCKASGYPFTNSGMYWVKQAPGQGLEYMGWINTEAGKPTYADDFKGRFVFSLDTSVSTAYLQISSLKAEDTAVYFCARWGYISDNSYGWFDYWGQGTLVTVSS VL: ATQLTQSPSSLSASVGDRVTISCRASEGVYSYMHWYQQKPGKQPKLLIYKASNLASGVPSRFSGSGSGTDFTLTISSLQPEDFATYFCHQNWNDPLTFGQGTKLEIK | true
hBEW-9A8.20 (antibody, V domains shown) VH: EIQLVQSGAEVKKPGASVKVSCKASGYTFTNYGMYWVKQAPGQGLEYMGWINTETGKPIYADDFKGRFTFTLDTSTSTAYMELRSLRSDDTAVYYCARVDYDGSFWFAYWGQGTLVTVSS VL: ETVLTQSPATLSLSPGERATLSCRASESVSTVIHWYQQKPGQQPRLLIHGASNLESGVPARFSGSGSGTDFTLTISSLEPEDFAVYFCQQHWNDPPTFGQGTKLEIK | false
hBEW-5C3.5 (antibody, V domains shown) VH: EIQLVQSGAEVKKPGSSVKVSCKASGYTFTNYGVYWVKQAPGQGLEYMGWINTETGKPTYADDFKGRFTFTLDKSTSTAYMELSSLRSEDTAVYFCARARQLDWFVYWGQGTLVTVSS VL: DTQLTQSPSSLSASVGDRVTISCRARESLTTSLSWFQQKPGKQPKLLIYGASKLESGVPSRFSGSGSGTDFTLTISSLQPEDFATYFCQQSWYDPPTFGGGTKVEIK | true
hBEW-1B10.2 (antibody, V domains shown) VH: EVQLVESGGGLVQPGGSLRLSCAASGFSFSKYDMAWFRQAPGKGLEWVASITTSGVGTYYRDSVKGRFTVSRDNAKNSLYLQMNSLRAEDTAVYYCARGYGAMDAWGQGTTVTVSS VL: DIQMTQSPSSLSASVGDRVTITCKASQDIDDYLSWYQQKPGKSPKLVIYAATRLADGVPSRFSGSGSGTDYTLTISSLQPEDFATYYCLQSSSTPWTFGGGTKVEIK | true
